target: recombinant human UGT1A9 (Homo sapiens, UniProt O60656); experiment: Inhibition of recombinant UGT1A9-catalyzed 4-MU glucuronidation
Sequence (O60656 26-530): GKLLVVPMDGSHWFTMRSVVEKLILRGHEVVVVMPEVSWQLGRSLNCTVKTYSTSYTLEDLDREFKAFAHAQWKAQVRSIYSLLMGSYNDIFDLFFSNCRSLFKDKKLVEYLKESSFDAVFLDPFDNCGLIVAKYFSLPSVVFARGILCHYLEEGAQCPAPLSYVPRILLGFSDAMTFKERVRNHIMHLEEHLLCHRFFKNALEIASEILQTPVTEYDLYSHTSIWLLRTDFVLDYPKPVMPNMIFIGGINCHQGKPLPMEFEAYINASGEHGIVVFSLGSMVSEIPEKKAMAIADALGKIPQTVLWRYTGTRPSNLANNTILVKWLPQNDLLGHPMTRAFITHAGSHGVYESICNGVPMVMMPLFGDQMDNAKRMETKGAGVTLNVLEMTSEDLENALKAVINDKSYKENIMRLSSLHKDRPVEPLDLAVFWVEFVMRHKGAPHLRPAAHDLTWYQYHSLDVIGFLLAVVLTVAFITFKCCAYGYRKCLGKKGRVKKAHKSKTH
Measurement Type: Ki (nM)
Give bare numbers, in nM.

Request: Fill in the blank: the reported Ki of O=c1c(O)c(-c2ccc(O)c(O)c2)oc2cc(O)cc(O)c12 [Quercetin, 3,3',4',5,7-pentahydroxyflavone] is ____.
Result: 510

---

Biological target: recombinant human UGT1A1 (Homo sapiens, UniProt P22309)
Sequence (P22309 26-533): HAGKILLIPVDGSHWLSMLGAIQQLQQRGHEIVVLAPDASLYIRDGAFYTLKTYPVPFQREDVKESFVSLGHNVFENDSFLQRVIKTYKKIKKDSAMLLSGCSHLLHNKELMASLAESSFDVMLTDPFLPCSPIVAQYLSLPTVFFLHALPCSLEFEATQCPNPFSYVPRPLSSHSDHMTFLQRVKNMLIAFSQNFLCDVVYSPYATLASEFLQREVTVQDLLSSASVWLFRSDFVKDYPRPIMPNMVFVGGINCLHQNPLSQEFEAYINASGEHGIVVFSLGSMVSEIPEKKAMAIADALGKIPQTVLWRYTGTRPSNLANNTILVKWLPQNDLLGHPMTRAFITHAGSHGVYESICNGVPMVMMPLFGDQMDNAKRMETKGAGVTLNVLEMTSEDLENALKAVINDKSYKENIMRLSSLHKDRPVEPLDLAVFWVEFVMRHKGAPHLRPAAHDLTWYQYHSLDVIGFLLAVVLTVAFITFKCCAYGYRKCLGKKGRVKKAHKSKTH
Experiment: Inhibition of recombinant UGT1A1-catalyzed 4-MU glucuronidation
Type: in vitro ADME
Measurement Type: IC50 (µM)
Give bare numbers, in µM.

Request: Fill in the blank: the reported IC50 of O=c1c(O)c(-c2ccc(O)c(O)c2)oc2cc(O)cc(O)c12 [Quercetin, 3,3',4',5,7-pentahydroxyflavone] is ____.
Result: 7.47
